Please consider the recorded IC50 for GST-Plk1 (Homo sapiens, UniProt P53350) in what follows.
One number for each entry, in nM.

# annotated cases, reported IC50 shown
- COc1cccc(-c2nc(-n3cnc4cc(OC)c(OC)cc43)sc2C(=O)O)c1: 127
- C=Cc1ccc(-c2nc(-n3cnc4cc(OC)c(OC)cc43)sc2C(=O)O)cc1: 2670
- COc1cc2ncn(-c3nc(-c4ccccc4)c(-c4nnn[nH]4)s3)c2cc1OC: 1100
- COc1cc2ncn(-c3nc(-c4ccc5c(ccn5C)c4)c(C(=O)O)s3)c2cc1OC: 368
- COc1cccc(NC(=O)c2sc(-n3cnc4cc(OC)c(OC)cc43)nc2-c2cccc(Cl)c2)c1: 250
- COc1cc2ncn(-c3nc(-c4cccc(CO)c4)c(C(=O)O)s3)c2cc1OC: 1080
- COc1cc2ncn(-c3nc(-c4cc(Cl)cc(Cl)c4)c(C(=O)O)s3)c2cc1OC: 66
- COc1cc2ncn(-c3nc(-c4ccc(Cl)c(Cl)c4)c(C(=O)O)s3)c2cc1OC: 216
- COc1cc2ncn(-c3nc(-c4ccc(F)c(F)c4)c(C(=O)O)s3)c2cc1OC: 542
- C=Cc1cccc(-c2nc(-n3cnc4cc(OC)c(OC)cc43)sc2C(=O)O)c1: 102

Consider the following items and state reported IC50 for each.
1. COc1cc2ncn(-c3nc(-c4cccc(C(C)C)c4)c(C(=O)O)s3)c2cc1OC
2. COc1cc2ncn(-c3nc(-c4cccc5ccccc45)c(C(=O)O)s3)c2cc1OC
3. COc1cc2ncn(-c3nc(-c4ccnc(Cl)c4)c(C(=O)O)s3)c2cc1OC
4. COc1cc2ncn(-c3nc(-c4ccccc4)c(C(=O)O)s3)c2cc1OC
5. COc1cc2ncn(-c3nc(-c4cccc(Cl)c4)c(C(=O)Nn4cnnc4)s3)c2cc1OC

1: 68; 2: 3180; 3: 75; 4: 107; 5: 344

###

Please consider the recorded pIC50 for GST-Plk1 (Homo sapiens) in what follows.
One number for each entry, as −log10 of the molar value.

# annotated cases, reported pIC50 shown
• COc1cc2ncn(-c3nc(-c4ccc(C(F)(F)F)c(Cl)c4)c(C(=O)O)s3)c2cc1OC = 6.45
• COc1cc2ncn(-c3nc(-c4ccccc4)c(C(N)=O)s3)c2cc1OC = 5.86
• COc1cc2ncn(-c3nc(-c4ccccc4C)c(C(=O)O)s3)c2cc1OC = 5.79
• COc1cc2ncn(-c3nc(-c4ccc(C)cc4)c(C(=O)O)s3)c2cc1OC = 6.18
• COc1cc2ncn(-c3nc(-c4ccc5c(c4)OCCO5)c(C(=O)O)s3)c2cc1OC = 5.63
• COc1ccc(-c2nc(-n3cnc4cc(OC)c(OC)cc43)sc2C(=O)O)cc1OC = 5.62

Consider the following items and state reported pIC50 for each.
1. COc1ccc(-c2nc(-n3cnc4cc(OC)c(OC)cc43)sc2C(=O)O)cc1
2. O=C(O)c1sc(-n2cnc3cc(O)c(O)cc32)nc1-c1ccccc1

6.07
5.70

###

target: GST-Plk1 (Homo sapiens); construct: Full-length, active GST-Plk1 was purified from Sf9 insect cells; made in house; host or cells: Sf9 insect cells; experiment: Biochemical Characterization Assay: HTRF kinase assay, GST-Plk1 phosphorylation of GST-p53; conditions: full-length active GST-Plk1, GST-p53 substrate, ATP, 37° C. for 35 minutes, HTRF signal
Sequence (P53350 whole entry): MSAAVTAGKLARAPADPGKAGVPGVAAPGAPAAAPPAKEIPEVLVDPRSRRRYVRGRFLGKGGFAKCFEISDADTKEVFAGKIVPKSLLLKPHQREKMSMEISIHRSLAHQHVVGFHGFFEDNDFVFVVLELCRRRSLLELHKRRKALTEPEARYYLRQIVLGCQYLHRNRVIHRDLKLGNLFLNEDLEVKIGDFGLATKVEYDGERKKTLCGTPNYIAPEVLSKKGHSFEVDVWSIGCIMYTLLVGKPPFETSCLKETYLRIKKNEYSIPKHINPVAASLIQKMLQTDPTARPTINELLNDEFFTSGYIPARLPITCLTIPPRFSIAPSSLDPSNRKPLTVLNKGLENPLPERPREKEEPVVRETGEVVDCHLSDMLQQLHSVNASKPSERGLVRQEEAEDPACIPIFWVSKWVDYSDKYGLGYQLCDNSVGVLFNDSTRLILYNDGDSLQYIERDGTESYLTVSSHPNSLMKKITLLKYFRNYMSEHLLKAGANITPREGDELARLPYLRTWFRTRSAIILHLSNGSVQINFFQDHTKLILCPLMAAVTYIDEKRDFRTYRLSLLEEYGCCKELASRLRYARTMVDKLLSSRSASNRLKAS
Task for the reader: assign each of the following compounds its reported pIC50.
Answers are plain numbers, as −log10 of the molar value.

# annotated cases, reported pIC50 shown
- NC(=O)c1sc(-n2cnc3ccccc32)nc1-c1ccccc1 [Example 3]: 5.13
- COc1cc2ncn(-c3nc(-c4ccc(F)c(Cl)c4)c(C(=O)O)s3)c2cc1OC [Example 19]: 7.06
- CCNC(=O)c1sc(-n2cnc3cc(OC)c(OC)cc32)nc1-c1ccccc1 [Example 11]: 6.04
- O=C(O)c1sc(-n2cnc3ccccc32)nc1-c1ccccc1 [Example 2]: 6.11

The record that follows has no pIC50 shown yet.
Could you tell me which pIC50 is on file for COc1cc2ncn(-c3nc(-c4cccc(Cl)c4)c(C(=O)NNC(=O)c4cccs4)s3)c2cc1OC [Example 53] ? 7.74

Taken from patent US7504513B2.
